# Test system: Plasmodium berghei
# Protocol Text: Luciferase/luciferin-expressing antifolate-resistant parasites were used to infect a culture of HepG2 cells that were pre-incubated with compounds. Infected hepatocytes emit light due to the luciferase reaction. Assay results are presented as the percent inhibition of light emission compared to control. […]
# Type: functional
# Test Context: sporozoite, PBLUC_HILL_SLOPE 2.62, PBLUC_R_SQUARED 0.237, read-out: LUCIFERASE INFECTION ASSAY - IC50
pIC50: −log10 of the molar value.
Reported Property: pIC50

CC(C)Cn1c(-c2cccs2)nc2c(c(=O)c3ccccc3n2C)c1=O ... 5.43

----------
# System: Plasmodium berghei
# Protocol Text: Luciferase/luciferin-expressing antifolate-resistant parasites were used to infect a culture of HepG2 cells that were pre-incubated with compounds. Infected hepatocytes emit light due to the luciferase reaction. Assay results are presented as the percent inhibition of light emission compared to control. […]
# Format: functional
# Test Context: sporozoite, FFLUC_HILL_SLOPE 2.82, FFLUC_R_SQUARED 0.966, read-out: LUCIFERASE INFECTION ASSAY - IC50
Reported Property: IC50

COc1ccccc1-n1c(SCC(=O)NNC(=O)c2ccc([N+](=O)[O-])cc2)nc2ccccc2c1=O ... > 10 µM

Values compiled from ChEMBL document CHEMBL4483862.
